- Test name: NCI Yeast Anticancer Drug Screen. Data for the cln2 rad14 strain (AID 165);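 also: 0% = growth equal to vehicle treated cultures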
- Stated conditions: S. cerevisiae cln2 rad14 strain, at 50.0 µM, hits give high values
The panel holds about 79,000 compounds, 15% with a hit somewhere; the sample as a whole holds those more often.
Measured quantity: growth inhibition (%)
# output: bare number, implied unit %

Provide growth inhibition value for the following molecule: `Clc1ccc(SCCCCSc2ccc(Cl)cc2)cc1`
-3.45

For `Nc1c(F)c(F)c(C(=O)O)c(F)c1F` , write its growth inhibition.
-3.9

Give growth inhibition for OC1c2ccccc2OC2(N3CCCC3)CCCCC12 (stereo not given)
-15.7

Tell me growth inhibition reported for COC(=O)[C@]12CCC(C)(C)C[C@H]1C1=CC[C@@H]3[C@@]4(C)CC[C@H](OC5OC(CO)C(O)C(O)C5OC5OC(CO)C(O)C(O)C5O)C(C)(C)[C@@H]4CC[C@@]3(C)[C@]1(C)CC2 (stereo not given in full)
90

Retrieve growth inhibition measured for `CCn1c(=O)c2c3ccc(OC(C)=O)cc3[nH]c2c2ccc(OC(C)=O)cc21` and print it.
9.35

Further cases:
Return growth inhibition (reported value) for this molecule: `Nc1nnc2nc(C(C(=O)/C=C\c3cccc(O)c3)c3nc4nnc(N)n4[nH]c3=O)c(=O)[nH]n12`
1.65

Provide measured growth inhibition value, entry: C1=C/CCC2OC2CC/C=C/CC/1 (stereo not given)
11.8

Query growth inhibition for `Clc1ccccc1N=Cc1ccc(C=Nc2ccccc2Cl)cc1`
3.3

Return reported growth inhibition. Input molecule: `CCCC(=O)c1cc(-c2cc(C(=O)CCC)nc(N)n2)nc(N)n1`
-15.9

Supply recorded growth inhibition for `Nc1nc(N)c2nnsc2n1` here.
16.6

Data credit: PubChem BioAssay (NCI)
